Target: WD repeat-containing protein 5 (WDR5), truncated construct, residues 24-334 (mouse, UniProt P61965 24-334)
Assay: ITC; peptide (0.5 to 1.0 mM) titrated into WDR5 protein (44.5 μM) in the cell; 20 °C; Buffer D (20 mM Tris-HCl, 200 mM NaCl, pH 7.5); single binding site model
Conditions: both partners purified
Assignment: determine reported dH for the given binders.
Numbers only, in kcal/mol.

Worked examples, 2 binders total:
GAARCRVHSPQG (numbers count on: isoform MBD3C; also called MBD3C^F47H; source: synthetic peptide (GenScript)) [MBD3C_(40-51) (F47H) peptide]: -7.8
GAAKCRVFSPQG (numbers count on: isoform MBD3C; also called MBD3C^R43K; source: synthetic peptide (GenScript)) [MBD3C_(40-51) (R43K) peptide]: -15

Parameters: items (list). Returns: dH for each item.
1. GAARCRVASPQG (numbers count on: isoform MBD3C; also called MBD3C^F47A; source: synthetic peptide (GenScript)) [MBD3C_(40-51) (F47A) peptide]
2. GAARCEVFSPQG (numbers count on: isoform MBD3C; also called MBD3C^R45E; source: synthetic peptide (GenScript)) [MBD3C_(40-51) (R45E) peptide]
3. GAARCRVFSPQG (numbers count on: isoform MBD3C; also called MBD3C peptide; MBD3C WIN motif; source: synthetic peptide (GenScript)) [MBD3C_(40-51) peptide (methyl-CpG binding domain 3 isoform C, WIN motif)]

Key:
[-7.32, -7.49, -11.4]
